Listed here: items and their measured kon.
Target: T1, recombinant cynomolgus monkey sclerostin (cynomolgus monkey)
T1 construct: also called cyno sclerostin; Cyno sclerostin
Assay: SPR
Description: The binding of antibodies or anti-sclerostin-TNF DVD to purified recombinant human, cynomolgus monkey (cyno), rat and mouse sclerostin and TNFα was determined by surface plasmon resonance-based measurements with a Biacore T100 or T200 instruments (GE Healthcare Life Sciences, Piscataway, N.J., USA) using running HBS-EP+ (10 mM HEPES [pH 7.4], 150 mM NaCl, 3 mM EDTA, and 0.005% surfactant P20) containing additional 150 mM NaCl, and/or 10 mg/ml carboxymethyl dextran, 0.1 mg/ml BSA at 25° C. […]
I only need the number, in M⁻¹ s⁻¹, no unit after it.

Illustrative cases are given below, each with its answer.
Given item AE10-6-AM6 (antibody, V domains shown, converted into IgG; also called rHC + LC S4 clone 119) VH: EVQLVQSGAEVKKPGASVKVSCKVSGYTLSELSMHWVRQAPGKGLEWMGGFDPEGGETIYAQKFQGRVTMTEDTSTDTAYMELSSLRSEDTAVYYCATDTEGYWEKFFQHWGQGTLVTVSS VL: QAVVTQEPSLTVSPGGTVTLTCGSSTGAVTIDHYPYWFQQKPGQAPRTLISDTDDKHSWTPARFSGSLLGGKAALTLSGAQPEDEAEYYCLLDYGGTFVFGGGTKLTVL , the value recorded as its kon is 7.9e+06

// recorded kon for AE10-6-AM5 (antibody, V domains shown, converted into IgG) VH: EVQLVQSGAEVKKPGASVKVSCKVSGYTLSELSMHWVRQAPGKGLEWMGGFDPEGGETIYAQKFQGRVTMTEDTSTDTAYMELSSLRSEDTAVYYCATDAGGYWYKFFQHWGQGTLVTVSS VL: QAVVTQEPSLTVSPGGTVTLTCGSSTGTVTIDHYPYWFQQKPGQAPRTLISDTDDKHSWTPARFSGSLLGGKAALTLSGAQPEDEAEYYCLLFYGGTVVFGGGTKLTVL : 5.2e+06

Next:
What the record says about AE10-6-AM3 (antibody, V domains shown, converted into IgG) VH: EVQLVQSGAEVKKPGASVKVSCKVSGYTLTELSMHWVRQAPGKGLEWMGGFDPEDGETIYAQKFQGRVTMTEDTSTDTAYMELSSLRSEDTAVYYCATDSAGYWYKFFQHWGQGTLVTVSS VL: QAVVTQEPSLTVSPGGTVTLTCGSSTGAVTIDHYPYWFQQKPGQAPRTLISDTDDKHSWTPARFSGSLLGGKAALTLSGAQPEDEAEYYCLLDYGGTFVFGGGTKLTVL : kon is 6.9e+06
